Answer each item with its documented GI50.
- System: A498
- assay procedure: NCI tumour cell line growth inhibition, 48 h
The source made the active and inactive calls. Rule as the data show it: active = GI50 up to about 1.1 µM and inactive = higher. Where a SMILES comes first, the peptide text is derived from it. The star is where a group is joined. Cbz = O=C(OCc1ccccc1)*; OBn = c1ccc(CO*)cc1

Record `O=[N+]([O-])c1ccc2oc(=N/c3ccccc3)/c(=N\c3ccccc3)[nH]c2c1` . Reported GI50: 59.4 µM (inactive)

Go through the items and report each one's GI50.
1. NC(CCCCNCc1ccccc1O)C(=O)O (centres undefined)
2. CS(=O)(=O)CS(=O)(=O)OCCCl
3. COc1cc(C=C2C(C)=NN(c3cccc(Cl)c3)C23SCC(=O)N3c2nc3ccccc3s2)ccc1O (centres undefined)
4. O=C(CC1(O)C(=O)Nc2ccccc21)c1ccccc1Cl (centres undefined)

[out]
["> 100 µM (inactive)", "527 µM (inactive)", "26.4 µM (inactive)", "> 100 µM (inactive)"]

I need GI50 for every entry listed below, if you could help.
1. N#CCCN(c1ccc(/C=C2\N=C(c3ccc(Cl)cc3)OC2=O)cc1)S(=O)(=O)c1ccccc1
2. CSC(=O)/C=C1\SS/C(=C\C(=O)SC)S1
3. CCc1cccc(C)c1NC(=O)CCc1n[nH]c(=S)o1

[out]
1: > 100 µM (inactive); 2: 7.89 µM (inactive); 3: > 100 µM (inactive)

Batch request: GI50 for each of the following molecules.
1. C/C1=C\CC[C@@]2(C)O[C@@H]2C[C@@H]2[C@H](C/C(C)=C/CC1)OC(=O)C21CC1
2. O=c1c(C(c2ccc(OCc3ccccc3)cc2)c2c(O)oc3ccccc3c2=O)c(O)oc2ccccc12
3. c1ccc2c[n+](Cc3ccnc4ccccc34)ccc2c1
4. COC1C=COC2(C)Oc3c(C)c(O)c4c(O)c(c(C5SCCS5)c(O)c4c3C2=O)NC(=O)/C(C)=C\C=CC(C)C(O)C(C)C(O)C(C)C(OC(C)=O)C1C (centres undefined)
5. COC(=O)C(Cc1ccc(O)cc1)NC(=O)C(CC(=O)OCc1ccccc1)NC(=O)OCc1ccccc1 (centres undefined) (Cbz-Asp(OBn)-Tyr-OMe; configuration not given here)

[out]
> 100 µM (inactive)
83.2 µM (inactive)
> 100 µM (inactive)
13.1 µM (inactive)
20.6 µM (inactive)

Below are 6 molecules. Give each one its GI50.
1. Cc1[nH]c2ccccc2c1/C=N/c1ccc(/N=C/c2c(C)[nH]c3ccccc23)cc1
2. CCOC(=O)C(NC(=O)CC)(N1CCN(c2cc3c(cc2F)c(=O)c(C(=O)O)cn3C2CC2)CC1)C(F)(F)F (centres undefined)
3. CN1CCN(CC(=O)N2CCCn3c2nc2ccccc2c3=O)CC1
4. CCCCCCCCCCCCSC(=S)c1c(C)[nH]n(CCCCCCCCCCCC)c1=O
5. Cc1ccc(S(=O)(=O)OC2CS[S+]([O-])CC2OS(=O)(=O)c2ccc(C)cc2)cc1 (centres undefined)
6. Cc1ccc2c(c1)SC(c1cc3c(cc1Br)OCO3)S2 (centres undefined)

[out]
1: 52.1 µM (inactive); 2: > 100 µM (inactive); 3: > 100 µM (inactive); 4: > 100 µM (inactive); 5: 16.1 µM (inactive); 6: > 31.6 µM (inactive)
